# Tested on: P388 leukemia ip, CD2F1 mice, survival T/C
# TEST_DESCRIPTION: NCI In Vivo Anticancer Drug Screen. Data for tumor model P388 Leukemia (intraperitoneal) in CD2F1 (CDF1) mice
# CONDITION_CONTEXT: endpoint: median survival time; dose: 6.25 mg/kg/injection; schedule: Q01DX005 (ip); vehicle: saline; higher = longer survival
Toxic doses and inconclusive results are not listed.
METRIC: T/C

compound=C(=C\c1ccccc1)/c1ccccc1 target="P388 leukemia ip, CD2F1 mice, survival T/C" result="100 % of control"
compound="COc1cc(NCCC2CCCCN2)c2ncccc2c1 (centres undefined)" target="P388 leukemia ip, CD2F1 mice, survival T/C" result="100 % of control"
compound=CN(C)CC(CN(C)C)C(=O)c1ccc(O)cc1 target="P388 leukemia ip, CD2F1 mice, survival T/C" result="118 % of control"
compound=COc1cc([C@@H]2c3cc4c(cc3[C@H](OC(=O)CCCC(=O)O)[C@H]3COC(=O)[C@H]23)OCO4)cc(OC)c1OC target="P388 leukemia ip, CD2F1 mice, survival T/C" result="104 % of control"
